- System: 786-0 renal
- TEST METHOD NOTES: NCI-60 one-dose screen, 48 h
- TEST CONTEXT: 10 µM unless noted
About 83,000 compounds went through this panel and 20% of them were active in at least one assay; those are over-represented in the sample as a whole. Active and inactive are the calls of the source. The calls were made as follows: active = growth percent below 10; inactive = the rest.
Choose the fitting class; nothing outside active, inactive is accepted.

Illustrative cases are given below, each with its answer.
{"columns": ["MOLECULE", "CLASS ASSIGNMENT"],
 "data": [
  ["Cc1ccc(C=C2C(=O)NC(=O)NC2=O)cc1", "inactive"],
  ["Cc1ccc(C(=O)c2ccc(CC(=O)N=Nc3c(O)[nH]c4ccc(Br)cc34)n2C)cc1", "inactive"],
  ["CC(C)N1C(=O)/C(=c2\\sc3n(c2=O)C2C(NN=3)N(C)C(=O)N2C)c2ccccc21 (centres undefined)", "inactive"],
  ["CS(=O)(=O)Nc1cc(-c2ccc3ncc(C#N)c(Nc4ccc(F)c(Cl)c4)c3c2)cnc1Cl", "active"],
  ["CC1(C)CC[C@]2(CO)CC[C@]3(C)[C@H](CC[C@@H]4[C@@]5(C)CCCNC(C)(C)[C@@H]5CC[C@]43C)[C@H]2[C@H]1O", "inactive"]
]}

Prompt line: Lab log entry: Clc1c(Cl)[n+](Cc2ccc3ccccc3c2)cn1Cc1ccc2ccccc2c1 — outcome as called in the assay?
Response line: active

Prompt line: Lab log entry: O=c1nc(-c2ccccc2)c2cc(-c3ccc(C(F)(F)F)nc3)ccc2[nH]1 — outcome as called in the assay?
Response line: inactive

Prompt line: Lab log entry: CC(=C(c1ccc(OCCN2CCCCC2)cc1)c1ccc(OCCN2CCCCC2)cc1)c1ccc(Cl)cc1 — outcome as called in the assay?
Response line: active

Prompt line: Lab log entry: O=c1ccc(=O)n(-c2nc(-c3ccc([N+](=O)[O-])cc3)cs2)[nH]1 — outcome as called in the assay?
Response line: inactive
